Where do the numbers come from? From patent US10750743B2.

Measured Foxtail, Giant plant response rating by item
system: foxtail, giant (giant foxtail, Setaria faberii); assay: Test A postemergence application, visual injury rating; format: in vivo; conditions: 125 g ai/ha, 0 to 100 scale, 0 no effect, 100 complete control
quantity: Foxtail, Giant plant response rating

[[record]]
structure = "Cc1ccc2ccoc2c1-c1c(O)c(C)nn(C)c1=O"
obsvalue = 80

[[record]]
structure = "Cn1nc(Cl)c(O)c(-c2cccc3[nH]nnc23)c1=O"
obsvalue = 0

[[record]]
structure = "CCc1sc2ncccc2c1-c1c(O)c(C)nn(C)c1=O"
obsvalue = 0

[[record]]
structure = "CCOC(=O)Oc1c(C)nn(C)c(=O)c1-c1cccc2sccc12"
obsvalue = 0

[[record]]
structure = "Cc1nn(C)c(=O)c(-c2c(C)sc3ncccc23)c1O"
obsvalue = 0


* * *

test system: ryegrass, It. (Italian ryegrass, Lolium multiflorum); experiment: Test A postemergence application, visual injury rating; type: in vivo; settings: Lolium multiflorum, post-emergence, 240 h, 500 g ai/ha, 0 to 100 scale, 0 no effect, 100 complete control, read-out: Ryegrass, It. plant response rating
quantity: pest or weed control at 500 g/ha (%)

[[record]]
structure = "Cc1ccc2sccc2c1-c1c(O)c(C)nn(C)c1=O"
obsvalue = 90

[[record]]
structure = "CC(=O)Oc1c(C)nn(C)c(=O)c1-c1cccc2cc(C)oc12"
obsvalue = 100

[[record]]
structure = "Cc1cc2cccc(-c3c(O)c(C)nn(C)c3=O)c2o1"
obsvalue = 100

[[record]]
structure = "Cc1cc2ccc(C)c(-c3c(O)c(C)nn(C)c3=O)c2o1"
obsvalue = 100

[[record]]
structure = "CCOC(=O)Oc1c(C)nn(C)c(=O)c1-c1c(C)ccc2sccc12"
obsvalue = 100

[[record]]
structure = "CC(=O)Oc1c(C)nn(C)c(=O)c1-c1c(C)ccc2cc(C)oc12"
obsvalue = 100

[[record]]
structure = "Cc1nn(C)c(=O)c(-c2cccc3snc(C)c23)c1O"
obsvalue = 70


* * *

test system: blackgrass (Alopecurus myosuroides); test: Test A postemergence application, visual injury rating; format: in vivo; conditions: 31 g ai/ha, 0 to 100 scale, 0 no effect, 100 complete control
quantity: Blackgrass plant response rating

[[record]]
structure = "CC(=O)Oc1c(C)nn(C)c(=O)c1-c1ccc(Cl)c2sccc12"
quantity = "Blackgrass plant response rating"
obsvalue = 0

[[record]]
structure = "Cn1nc(Cl)c(O)c(-c2ccc(F)c3ccoc23)c1=O"
quantity = "Blackgrass plant response rating"
obsvalue = 0

[[record]]
structure = "CC(=O)Oc1c(C)nn(C)c(=O)c1-c1ccc(Cl)c2ccsc12"
quantity = "Blackgrass plant response rating"
obsvalue = 0

[[record]]
structure = "Cc1cc2c(-c3c(O)c(C)nn(C)c3=O)c(C)ccc2s1"
quantity = "Blackgrass plant response rating"
obsvalue = 40

[[record]]
structure = "Cc1cc2c(-c3c(OC(=O)c4ccccc4)c(C)nn(C)c3=O)ccc(Cl)c2o1"
quantity = "Blackgrass plant response rating"
obsvalue = 0

[[record]]
structure = "COC(=O)Oc1c(C)nn(C)c(=O)c1-c1c(C)ccc2cc(C)oc12"
quantity = "Blackgrass plant response rating"
obsvalue = 10

[[record]]
structure = "Cc1nn(C)c(=O)c(-c2ccc(Cl)c3ccoc23)c1O"
quantity = "Blackgrass plant response rating"
obsvalue = 0

[[record]]
structure = "CC(=O)Oc1c(C)nn(C)c(=O)c1-c1ccc(Cl)c2oc(C)cc12"
quantity = "Blackgrass plant response rating"
obsvalue = 0

[[record]]
structure = "COC(=O)Oc1c(C)nn(C)c(=O)c1-c1ccc(Cl)c2cc(C)oc12"
quantity = "Blackgrass plant response rating"
obsvalue = 0


* * *

system: barnyardgrass (Echinochloa crus-galli); assay: Test A preemergence, directed soil spray, visual injury rating; assay type: in vivo; details: 125 g ai/ha, 0 is no effect, 100 is complete control
quantity: Plant response rating (0 to 100 scale), Barnyardgrass

[[record]]
structure = "CC(=O)Oc1c(C)nn(C)c(=O)c1-c1ccc(Cl)c2oc(C)cc12"
obsvalue = 0

[[record]]
structure = "CC(=O)Oc1c(Cl)nn(C)c(=O)c1-c1nccc2ccccc12"
obsvalue = 0

[[record]]
structure = "CCC(=O)Oc1c(C)nn(C)c(=O)c1-c1ccc(Cl)c2sccc12"
obsvalue = 0

[[record]]
structure = "Cc1nn(C)c(=O)c(-c2c(C)sc3ncccc23)c1OC(=O)C1CC1"
obsvalue = 0

[[record]]
structure = "Cc1cc2ccc(C(F)(F)F)c(-c3c(O)c(C)nn(C)c3=O)c2o1"
obsvalue = 0

[[record]]
structure = "CCC(=O)Oc1c(C)nn(C)c(=O)c1-c1cccc2cc(C)oc12"
obsvalue = 0

[[record]]
structure = "Cc1cc2c(Cl)ccc(-c3c(OC(=O)c4ccccc4)c(C)nn(C)c3=O)c2o1"
obsvalue = 0

[[record]]
structure = "Cc1nn(C)c(=O)c(-c2ccc(Cl)c3sc(Br)cc23)c1O"
obsvalue = 0

[[record]]
structure = "Cc1nn(C)c(=O)c(-c2cccc3sccc23)c1O"
obsvalue = 20

[[record]]
structure = "Cc1cc2c(-c3c(O)c(C)nn(C)c3=O)c(C)ccc2s1"
obsvalue = 30

[[record]]
structure = "COC(=O)Oc1c(C)nn(C)c(=O)c1-c1ccc(Cl)c2oc(C)cc12"
obsvalue = 30

[[record]]
structure = "COC(=O)Oc1c(C)nn(C)c(=O)c1-c1ccc(Cl)c2sccc12"
obsvalue = 0

[[record]]
structure = "COC(=O)Oc1c(C)nn(C)c(=O)c1-c1ccc(Cl)c2ccsc12"
obsvalue = 10

[[record]]
structure = "CCC(=O)Oc1c(C)nn(C)c(=O)c1-c1c(C(F)(F)F)ccc2cc(C)oc12"
obsvalue = 30

[[record]]
structure = "COC(=O)Oc1c(C)nn(C)c(=O)c1-c1cccc2cc(C)oc12"
obsvalue = 0

[[record]]
structure = "COC(=O)Oc1c(C)nn(C)c(=O)c1-c1c(C)ccc2cc(C)oc12"
obsvalue = 0

[[record]]
structure = "CCC(=O)Oc1c(C)nn(C)c(=O)c1-c1ccc(Cl)c2cc(C)oc12"
obsvalue = 70


* * *

system: kochia (Kochia scoparia); test: Test A postemergence application, visual injury rating; format: in vivo; conditions: 500 g ai/ha, 0 to 100 scale, 0 no effect, 100 complete control
Measured Kochia plant response rating by item
quantity: Kochia plant response rating

[[record]]
structure = "COc1ncc(-c2c(O)c(C)nn(C)c2=O)c2ccccc12"
obsvalue = 100

[[record]]
structure = "CCc1sc2ncccc2c1-c1c(O)c(C)nn(C)c1=O"
obsvalue = 0

[[record]]
structure = "CC(=O)Oc1c(C)nn(C)c(=O)c1-c1cncc2ccccc12"
obsvalue = 80

[[record]]
structure = "CCc1sc2ncccc2c1-c1c(OC(=O)OC(C)C)c(C)nn(C)c1=O"
obsvalue = 0

[[record]]
structure = "Cc1cnc2sc(C)c(-c3c(OC(=O)OC(C)C)c(C)nn(C)c3=O)c2c1"
obsvalue = 60

[[record]]
structure = "CCOC(=O)Oc1c(C)nn(C)c(=O)c1-c1c(C)sc2ncc(C)cc12"
obsvalue = 90

[[record]]
structure = "CCOC(=O)Oc1c(C)nn(C)c(=O)c1-c1cccc2sccc12"
obsvalue = 20

[[record]]
structure = "Cc1nn(C)c(=O)c(-c2c(C)sc3ncccc23)c1OC(=O)C1CC1"
obsvalue = 0


* * *

tested on: ragweed (common ragweed, Ambrosia elatior); experiment: Test A postemergence application, visual injury rating; assay type: in vivo; conditions: 125 g ai/ha, 0 to 100 scale, 0 no effect, 100 complete control
Measured Ragweed plant response rating by item
quantity: Ragweed plant response rating

[[record]]
compound = "Cc1cc2c(Cl)ccc(-c3c(OC(=O)c4ccccc4)c(C)nn(C)c3=O)c2o1 [Compound 39]"
assaysystem = "ragweed (common ragweed, Ambrosia elatior)"
quantity = "Ragweed plant response rating"
obsvalue = 10

[[record]]
compound = "CCOC(=O)Oc1c(C)nn(C)c(=O)c1-c1c(CC)sc2ncccc12 [Compound 19]"
assaysystem = "ragweed (common ragweed, Ambrosia elatior)"
quantity = "Ragweed plant response rating"
obsvalue = 0

[[record]]
compound = "Cc1cnc2sc(C)c(-c3c(O)c(C)nn(C)c3=O)c2c1 [Compound 3]"
assaysystem = "ragweed (common ragweed, Ambrosia elatior)"
quantity = "Ragweed plant response rating"
obsvalue = 20

[[record]]
compound = "Cc1nc2c(-c3c(O)c(C)nn(C)c3=O)cccc2s1 [Compound 27]"
assaysystem = "ragweed (common ragweed, Ambrosia elatior)"
quantity = "Ragweed plant response rating"
obsvalue = 0

[[record]]
compound = "Cc1cc2c(-c3c(O)c(C)nn(C)c3=O)ccc(Cl)c2o1 [Compound 45]"
assaysystem = "ragweed (common ragweed, Ambrosia elatior)"
quantity = "Ragweed plant response rating"
obsvalue = 0

[[record]]
compound = "Cc1nn(C)c(=O)c(-c2ccc(Cl)c3ccoc23)c1O [Compound 56]"
assaysystem = "ragweed (common ragweed, Ambrosia elatior)"
quantity = "Ragweed plant response rating"
obsvalue = 0

[[record]]
compound = "CCC(=O)Oc1c(C)nn(C)c(=O)c1-c1ccc(Cl)c2oc(C)cc12 [Compound 52]"
assaysystem = "ragweed (common ragweed, Ambrosia elatior)"
quantity = "Ragweed plant response rating"
obsvalue = 20

[[record]]
compound = "CCOC(=O)Oc1c(C)nn(C)c(=O)c1-c1c(C)sc2ncccc12 [Compound 24]"
assaysystem = "ragweed (common ragweed, Ambrosia elatior)"
quantity = "Ragweed plant response rating"
obsvalue = 0

[[record]]
compound = "Cn1ncc(O)c(-c2cccc3cnccc23)c1=O [Compound 34]"
assaysystem = "ragweed (common ragweed, Ambrosia elatior)"
quantity = "Ragweed plant response rating"
obsvalue = 0

[[record]]
compound = "Cc1nn(C)c(=O)c(-c2cccc3scnc23)c1O [Compound 1]"
assaysystem = "ragweed (common ragweed, Ambrosia elatior)"
quantity = "Ragweed plant response rating"
obsvalue = 0

[[record]]
compound = "CCC(=O)Oc1c(C)nn(C)c(=O)c1-c1cccc2cc(C)oc12 [Compound 26]"
assaysystem = "ragweed (common ragweed, Ambrosia elatior)"
quantity = "Ragweed plant response rating"
obsvalue = 30

[[record]]
compound = "CCC(=O)Oc1c(C)nn(C)c(=O)c1-c1cccc2sccc12 [Compound 4]"
assaysystem = "ragweed (common ragweed, Ambrosia elatior)"
quantity = "Ragweed plant response rating"
obsvalue = 0

[[record]]
compound = "CC(=O)Oc1c(C)nn(C)c(=O)c1-c1cncc2ccccc12 [Compound 8]"
assaysystem = "ragweed (common ragweed, Ambrosia elatior)"
quantity = "Ragweed plant response rating"
obsvalue = 0

[[record]]
compound = "COC(=O)Oc1c(C)nn(C)c(=O)c1-c1ccc(Cl)c2ccsc12 [Compound 50]"
assaysystem = "ragweed (common ragweed, Ambrosia elatior)"
quantity = "Ragweed plant response rating"
obsvalue = 70

[[record]]
compound = "CCOC(=O)Oc1c(C)nn(C)c(=O)c1-c1cccc2sccc12 [Compound 5]"
assaysystem = "ragweed (common ragweed, Ambrosia elatior)"
quantity = "Ragweed plant response rating"
obsvalue = 0

[[record]]
compound = "Cc1cc2c(-c3c(O)c(C)nn(C)c3=O)c(C)ccc2s1 [Compound 72]"
assaysystem = "ragweed (common ragweed, Ambrosia elatior)"
quantity = "Ragweed plant response rating"
obsvalue = 90

[[record]]
compound = "CC(=O)Oc1c(C)nn(C)c(=O)c1-c1c(C(F)(F)F)ccc2cc(C)oc12 [Compound 48]"
assaysystem = "ragweed (common ragweed, Ambrosia elatior)"
quantity = "Ragweed plant response rating"
obsvalue = 90

[[record]]
compound = "CC(=O)Oc1c(C)nn(C)c(=O)c1-c1ccc(Cl)c2ccsc12 [Compound 51]"
assaysystem = "ragweed (common ragweed, Ambrosia elatior)"
quantity = "Ragweed plant response rating"
obsvalue = 50

[[record]]
compound = "Cc1nn(C)c(=O)c(-c2cccc3sccc23)c1O [Compound 32]"
assaysystem = "ragweed (common ragweed, Ambrosia elatior)"
quantity = "Ragweed plant response rating"
obsvalue = 0

